target: human H1R (Homo sapiens, UniProt P35367); experiment: Human H1R radioligand displacement assay; assay type: binding; conditions: read-out: hH1R Inhibition at 1 µM [%] (n)
Sequence (P35367 whole entry): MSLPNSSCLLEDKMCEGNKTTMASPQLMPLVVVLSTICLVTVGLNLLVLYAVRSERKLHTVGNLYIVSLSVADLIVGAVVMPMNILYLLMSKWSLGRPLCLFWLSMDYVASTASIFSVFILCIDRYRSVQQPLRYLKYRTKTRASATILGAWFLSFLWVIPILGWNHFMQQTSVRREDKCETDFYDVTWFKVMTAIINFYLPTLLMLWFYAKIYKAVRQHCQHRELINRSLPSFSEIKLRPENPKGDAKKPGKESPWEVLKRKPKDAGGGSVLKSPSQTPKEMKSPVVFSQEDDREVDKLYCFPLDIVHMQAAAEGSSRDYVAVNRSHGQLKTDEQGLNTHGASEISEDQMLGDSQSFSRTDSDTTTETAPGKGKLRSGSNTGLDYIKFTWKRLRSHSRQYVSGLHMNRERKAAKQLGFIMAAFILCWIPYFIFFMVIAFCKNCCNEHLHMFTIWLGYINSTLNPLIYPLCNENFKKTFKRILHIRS
Measured metric: inhibition at 1 µM (%)
Answers are plain numbers, in %.

As a guide, the following entries are already answered.
1) CC1CN(CCCOc2ccc3nc(C(=O)N4CCNC(C)C4)sc3c2)CCN1 (stereo not shown)
18.4
2) O=C(c1nc2ccc(OCCCN3CCN(CCO)CC3)cc2s1)N1CCN(CCO)CC1
22.5
3) CC1CC(C)CN(CCCOc2ccc3nc(C(=O)N4CC(C)CC(C)C4)sc3c2)C1 (stereo not shown)
26.8

--- query ---
[ask] Please list inhibition at 1 µM recorded for the compound O=C(c1nc2ccc(OCCCN3CCc4ccccc4C3)cc2s1)N1CCc2ccccc2C1
[reply] 9.7

----------
molecular target: human AChE (Homo sapiens, UniProt P22303); test: Inhibition of AChE; type: biochemical; conditions: read-out: AChE Inhibition at 10 µM [%]
Sequence (P22303 32-614): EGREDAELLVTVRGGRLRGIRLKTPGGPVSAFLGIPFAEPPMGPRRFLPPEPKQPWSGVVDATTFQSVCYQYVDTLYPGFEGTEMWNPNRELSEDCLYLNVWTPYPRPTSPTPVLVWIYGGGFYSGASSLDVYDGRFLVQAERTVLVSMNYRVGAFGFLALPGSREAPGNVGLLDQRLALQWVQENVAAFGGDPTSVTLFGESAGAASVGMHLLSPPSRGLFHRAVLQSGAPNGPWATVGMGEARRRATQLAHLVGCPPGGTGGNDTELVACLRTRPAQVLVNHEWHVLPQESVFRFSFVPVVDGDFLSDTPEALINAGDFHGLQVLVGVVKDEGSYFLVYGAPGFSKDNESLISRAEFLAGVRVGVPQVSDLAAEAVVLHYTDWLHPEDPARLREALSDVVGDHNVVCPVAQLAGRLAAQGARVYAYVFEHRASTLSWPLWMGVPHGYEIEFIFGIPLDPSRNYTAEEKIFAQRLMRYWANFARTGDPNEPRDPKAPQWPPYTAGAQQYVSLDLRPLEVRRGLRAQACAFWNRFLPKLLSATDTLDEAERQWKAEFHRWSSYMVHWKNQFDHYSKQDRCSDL
Field: inhibition at 10 µM. Provide a value for each of the compounds that follow.
Give bare numbers, in %.

As a guide, the following entries are already answered.
1. O=C(c1nc2ccc(OCCCN3CCc4ccccc4C3)cc2s1)N1CCc2ccccc2C1
6.2
2. O=C(c1nc2ccc(OCCN3CCCC3)cc2s1)N1CCCC1
95.3
3. O=C(NCC1CCCCC1)c1nc2ccc(OCCCNCC3CCCCC3)cc2s1
3.2
4. O=C(NC1CC1)c1nc2ccc(OCCCCCNC3CC3)cc2s1
14.8
5. O=C(c1nc2ccc(OCCCN3CCN(CCO)CC3)cc2s1)N1CCN(CCO)CC1
7.3

Hi, could you look up inhibition at 10 µM for each item in my list?
1. O=C(c1nc2ccc(OCCN3CCCCC3)cc2s1)N1CCCCC1
2. O=C(NC1CCCC1)c1nc2ccc(OCCCNC3CCCC3)cc2s1
3. O=C(c1nc2ccc(OCCCCN3CCCCC3)cc2s1)N1CCCCC1

[reply]
35.5
59
54.8

Hi, could you look up inhibition at 10 µM for each item in my list?
1. O=C(NC1CCCC1)c1nc2ccc(OCCCCCNC3CCCC3)cc2s1
2. CN1CCN(CCCOc2ccc3nc(C(=O)N4CCN(C)CC4)sc3c2)CC1

[reply]
[75.5, 7.7]

----------
molecular target: human recombinant MAO-B (Homo sapiens, UniProt P27338); experiment: Inhibition of monoamine oxidase B
Sequence (P27338 whole entry): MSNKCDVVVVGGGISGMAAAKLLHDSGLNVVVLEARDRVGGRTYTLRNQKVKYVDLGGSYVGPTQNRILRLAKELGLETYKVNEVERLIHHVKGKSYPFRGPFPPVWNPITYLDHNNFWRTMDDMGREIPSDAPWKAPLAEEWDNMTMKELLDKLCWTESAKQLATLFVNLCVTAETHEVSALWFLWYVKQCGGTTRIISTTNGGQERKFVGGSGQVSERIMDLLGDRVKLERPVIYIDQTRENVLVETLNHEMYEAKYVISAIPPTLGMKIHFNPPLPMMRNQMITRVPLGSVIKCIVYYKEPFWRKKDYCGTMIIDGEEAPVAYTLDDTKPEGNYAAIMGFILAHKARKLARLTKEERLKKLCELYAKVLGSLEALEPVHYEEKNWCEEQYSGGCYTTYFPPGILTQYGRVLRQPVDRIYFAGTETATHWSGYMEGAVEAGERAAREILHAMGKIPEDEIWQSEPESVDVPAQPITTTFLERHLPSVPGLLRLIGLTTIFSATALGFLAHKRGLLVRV
Measured metric: pIC50
Answers are plain numbers, as −log10 of the molar value.

1) O=C(c1nc2ccc(OCCCCCN3CCCC3)cc2s1)N1CCCC1
5.80

--- query ---
[ask] Please list pIC50 recorded for the compound O=C(c1nc2ccc(OCCCCCN3CCCCC3)cc2s1)N1CCCCC1
[reply] 5.52

----------
Molecular target: human recombinant MAO-A (Homo sapiens)
Sequence (P21397 1-527): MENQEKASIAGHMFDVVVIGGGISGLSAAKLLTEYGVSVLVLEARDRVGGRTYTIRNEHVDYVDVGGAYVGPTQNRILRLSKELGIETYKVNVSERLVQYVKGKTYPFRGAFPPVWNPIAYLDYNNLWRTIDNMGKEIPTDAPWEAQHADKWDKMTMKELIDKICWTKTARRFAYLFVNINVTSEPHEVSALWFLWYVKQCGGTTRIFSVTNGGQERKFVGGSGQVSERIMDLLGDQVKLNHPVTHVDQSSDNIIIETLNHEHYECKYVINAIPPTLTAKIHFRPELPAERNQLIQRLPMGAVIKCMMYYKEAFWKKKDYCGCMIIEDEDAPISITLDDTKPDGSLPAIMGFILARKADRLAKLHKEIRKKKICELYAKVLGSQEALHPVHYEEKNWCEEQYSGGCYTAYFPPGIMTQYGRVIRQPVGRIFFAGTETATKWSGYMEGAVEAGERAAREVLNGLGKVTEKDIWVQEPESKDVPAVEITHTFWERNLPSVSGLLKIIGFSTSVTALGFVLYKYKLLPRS
Assay: Inhibition of monoamine oxidase A
Assay type: biochemical
Conditions: read-out: MAO-A % Inhibition at 10 µM
Binary classification by inhibition at 10 µM, with 30% as an inclusive lower bound for Criterion met; all other cases are Criterion not met.

Completed entries (count: 4):
1. O=C(c1nc2ccc(OCCN3CCCC3)cc2s1)N1CCCC1
Criterion met
2. O=C(c1nc2ccc(OCCCN3CCCCCC3)cc2s1)N1CCCCCC1
Criterion not met
3. CC1CCCN(CCCOc2ccc3nc(C(=O)N4CCCC(C)C4)sc3c2)C1 (centres unmarked)
Criterion met
4. O=C(c1nc2ccc(OCCCN3CCCC3)cc2s1)N1CCCC1
Criterion not met

Kindly consider the entry below.
[ask] Textbook exercise: given the entry O=C(c1nc2ccc(OCCCCN3CCCC3)cc2s1)N1CCCC1 , state whether its inhibition at 10 µM is greater than or equal to 30%.
[reply] Criterion met

----------
Field: Ki. Provide a value for each of the compounds that follow.
molecular target: human H3R (Homo sapiens, UniProt Q9Y5N1)
Sequence (Q9Y5N1 whole entry): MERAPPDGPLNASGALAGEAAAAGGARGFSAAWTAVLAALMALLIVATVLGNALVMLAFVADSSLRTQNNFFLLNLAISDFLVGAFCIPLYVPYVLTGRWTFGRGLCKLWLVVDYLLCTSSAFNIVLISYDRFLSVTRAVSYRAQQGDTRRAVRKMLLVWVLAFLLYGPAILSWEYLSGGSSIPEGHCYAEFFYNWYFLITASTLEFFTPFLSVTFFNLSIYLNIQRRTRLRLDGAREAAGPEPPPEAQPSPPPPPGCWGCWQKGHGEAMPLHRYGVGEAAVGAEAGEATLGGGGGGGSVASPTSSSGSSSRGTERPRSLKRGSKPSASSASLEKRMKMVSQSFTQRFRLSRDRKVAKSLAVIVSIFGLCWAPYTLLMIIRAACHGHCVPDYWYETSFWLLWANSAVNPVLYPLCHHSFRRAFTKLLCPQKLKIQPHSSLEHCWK
Numbers only, in nM.

As a guide, the following entries are already answered.
1) O=C(c1nc2ccc(OCCCN3CCc4ccccc4C3)cc2s1)N1CCc2ccccc2C1
340
2) O=C(c1nc2ccc(OCCCN3CCCC3)cc2s1)N1CCCC1
38

--- query ---
[ask] Give the observed Ki of CCN1CCN(CCCOc2ccc3nc(C(=O)N4CCN(CC)CC4)sc3c2)CC1 for human H3R (Homo sapiens, UniProt Q9Y5N1).
[reply] 430

----------
Field: inhibition at 10 µM. Provide a value for each of the compounds that follow.
target: human AChE (Homo sapiens); test: Inhibition of AChE; type: biochemical; conditions: read-out: AChE Inhibition at 10 µM [%]
One number for each entry, in %.

As a guide, the following entries are already answered.
1. CC(=O)N1CCN(CCCOc2ccc3nc(C(=O)N4CCN(C(C)=O)C(C)C4)sc3c2)CC1C (stereo not drawn) [Compound 4m]
2.4
2. CC1CCN(CCCOc2ccc3nc(C(=O)N4CCC(C)CC4)sc3c2)CC1 [Compound 4l]
8.4
3. O=C(NCC1CCCCC1)c1nc2ccc(OCCCCNCC3CCCCC3)cc2s1 [Compound 3l]
16.7
4. O=C(NC1CCCCCC1)c1nc2ccc(OCCCCNC3CCCCCC3)cc2s1 [Compound 3k]
9.7

Hi, could you look up inhibition at 10 µM for each item in my list?
1. O=C(c1nc2ccc(OCCCCCN3CCCCC3)cc2s1)N1CCCCC1 [Compound 3o]
2. O=C(NCC1CCCCC1)c1nc2ccc(OCCCCCNCC3CCCCC3)cc2s1 [Compound 3q]

[reply]
1. 27.8
2. 22.2

----------
Please consider the recorded IC50 for UniProt P22303 in what follows.

1. O=C(NCC1CCCCC1)c1nc2ccc(OCCNCC3CCCCC3)cc2s1 [Compound 3c]
> 10 µM
2. O=C(c1nc2ccc(OCCCN3CCCCCC3)cc2s1)N1CCCCCC1 [Compound 4b]
5.91 µM

Hi, could you look up IC50 for each item in my list?
1. O=C(NCC1CCCCC1)c1nc2ccc(OCCCCNCC3CCCCC3)cc2s1 [Compound 3l]
2. O=C(c1nc2ccc(OCCCN3CCN(CCO)CC3)cc2s1)N1CCN(CCO)CC1 [Compound 4i]

[reply]
1: > 10 µM; 2: > 10 µM

[ask] Please list IC50 recorded for the compound O=C(c1nc2ccc(OCCCN3CCCCC3)cc2s1)N1CCCCC1 [Compound 3d]
[reply] > 10 µM

----------
target: human H3R (Homo sapiens); experiment: Human H3R radioligand displacement assay; settings: read-out: hH3R Inhibition at 1 µM [%] ±SD (n)
Binary classification by inhibition at 1 µM, with 40% as an inclusive lower bound for satisfied; all other cases are not satisfied.

Completed entries (count: 4):
1. O=C(NC1CCCCCC1)c1nc2ccc(OCCCCCNC3CCCCCC3)cc2s1
not satisfied
2. COC(=O)c1nc2ccc(OCCCN[C@@H](Cc3ccc(O)cc3)C(=O)OC)cc2s1
satisfied
3. O=C(NC1CC1)c1nc2ccc(OCCCNC3CC3)cc2s1
not satisfied
4. O=C(NCC1CCCCC1)c1nc2ccc(OCCCNCC3CCCCC3)cc2s1
satisfied

Kindly consider the entry below.
[ask] Textbook exercise: given the entry O=C(NC1CCCCCC1)c1nc2ccc(OCCCNC3CCCCCC3)cc2s1 , state whether its inhibition at 1 µM is greater than or equal to 40%.
[reply] not satisfied

----------
target: human H4R (Homo sapiens); assay: Human H4R radioligand displacement assay; conditions: read-out: hH4R Inhibition at 10 µM [%] (n)
Sequence (Q9H3N8 whole entry): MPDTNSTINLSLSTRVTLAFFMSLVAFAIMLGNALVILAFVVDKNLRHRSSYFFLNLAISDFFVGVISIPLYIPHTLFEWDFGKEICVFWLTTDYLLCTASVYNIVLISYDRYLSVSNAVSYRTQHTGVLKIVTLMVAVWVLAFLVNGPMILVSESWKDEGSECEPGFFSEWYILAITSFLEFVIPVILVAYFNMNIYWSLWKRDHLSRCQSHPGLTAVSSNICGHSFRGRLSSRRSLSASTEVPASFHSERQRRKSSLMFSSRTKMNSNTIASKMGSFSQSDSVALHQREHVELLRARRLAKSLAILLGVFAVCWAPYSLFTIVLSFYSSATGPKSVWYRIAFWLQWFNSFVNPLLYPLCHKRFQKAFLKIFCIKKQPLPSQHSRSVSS
Binary classification by inhibition at 10 µM, with 50% as an inclusive lower bound for Fulfilled; all other cases are Not fulfilled.

Completed entries (count: 3):
1. O=C(c1nc2ccc(OCCCN3CCCCC3)cc2s1)N1CCCCC1
Fulfilled
2. O=C(NCC1CCCCC1)c1nc2ccc(OCCNCC3CCCCC3)cc2s1
Fulfilled
3. O=C(NC1CC1)c1nc2ccc(OCCCCNC3CC3)cc2s1
Fulfilled

[ask] Textbook exercise: given the entry O=C(c1nc2ccc(OCCCCCN3CCCC3)cc2s1)N1CCCC1 , state whether its inhibition at 10 µM is greater than or equal to 50%.
[reply] Fulfilled

[ask] Textbook exercise: given the entry COC(=O)c1nc2ccc(OCCCN[C@@H](Cc3ccc(O)cc3)C(=O)OC)cc2s1 , state whether its inhibition at 10 µM is greater than or equal to 50%.
[reply] Not fulfilled

[ask] Textbook exercise: given the entry O=C(NC1CCCC1)c1nc2ccc(OCCCCCNC3CCCC3)cc2s1 , state whether its inhibition at 10 µM is greater than or equal to 50%.
[reply] Not fulfilled
